assay: Hygroscopic analysis (DVS); type: physicochemical; conditions: 25° C., 40% RH, disodium salt
Where a name gives a salt, the structure may show the parent alone.
measured attribute: moisture absorption

> print(dat)
                                   molecule   measured.attribute  measured.result
1  O=C(O)c1cc(C(=O)O)c2c(n1)C(=O)C(=O)c1cc(C(=O)O)[nH]c1-2 [crystalline Form C, pyrroloquinoline quinone disodium salt]  moisture absorption             7.8%
2  O=C(O)c1cc(C(=O)O)c2c(n1)C(=O)C(=O)c1cc(C(=O)O)[nH]c1-2 [crystalline Form B, pyrroloquinoline quinone disodium salt]  moisture absorption             7.3%
3  O=C(O)c1cc(C(=O)O)c2c(n1)C(=O)C(=O)c1cc(C(=O)O)[nH]c1-2 [crystal E, pyrroloquinoline quinone disodium salt]  moisture absorption            11.8%
4  O=C(O)c1cc(C(=O)O)c2c(n1)C(=O)C(=O)c1cc(C(=O)O)[nH]c1-2 [crystalline Form A, pyrroloquinoline quinone disodium salt]  moisture absorption             1.6%
